Ref: patent US12139520B2

study-system: T1, hAMY3R (human, UniProt P30988)
T1 sequence 1: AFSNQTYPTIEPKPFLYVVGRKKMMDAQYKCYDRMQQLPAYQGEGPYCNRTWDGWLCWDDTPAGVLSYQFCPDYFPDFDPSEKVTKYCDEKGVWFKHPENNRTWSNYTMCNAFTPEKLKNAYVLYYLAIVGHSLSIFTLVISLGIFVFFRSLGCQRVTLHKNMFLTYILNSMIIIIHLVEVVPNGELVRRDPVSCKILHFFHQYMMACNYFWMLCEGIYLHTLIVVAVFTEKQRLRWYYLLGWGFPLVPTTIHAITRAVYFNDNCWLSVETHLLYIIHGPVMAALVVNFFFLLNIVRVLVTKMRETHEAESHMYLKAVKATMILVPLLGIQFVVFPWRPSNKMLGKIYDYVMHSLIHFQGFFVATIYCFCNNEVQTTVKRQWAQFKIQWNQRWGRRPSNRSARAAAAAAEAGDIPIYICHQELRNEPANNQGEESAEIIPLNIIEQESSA
T1 sequence 2: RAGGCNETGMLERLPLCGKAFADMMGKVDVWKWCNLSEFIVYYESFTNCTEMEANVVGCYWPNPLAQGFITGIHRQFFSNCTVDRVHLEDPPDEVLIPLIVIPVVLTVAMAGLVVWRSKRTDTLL
measurement-description: cell-based or functional assay
Numbered stars: 1 amine (or outer) side, 2 acyl side, 3 side chain; on linkers, the order of the positions; unused ones are H or OH. Bridge positions count the residues as written; N and C are the ends. Square brackets hold non-standard residues; d marks the D form. Ends that are not written are not given here. * marks the point of attachment. C20 diacid = O=C(O)CCCCCCCCCCCCCCCCCCC(=O)*; γGlu = O=C(O)[C@H](CCC(=O)[*:2])N[*:1]; Hyp = O=C(O)[C@@H]1C[C@@H](O)CN1
property-name: hAMY3R EC50 (cAMP) (nM)
State the answer as a number, implicitly in nM.

Before answering, review these 3 worked examples.
Task: Reported hAMY3R EC50 (cAMP) for KCNTATCTVQRLAHQIYQFTDKDKDNVAPRTEVGSNGY [SEQ ID NO: 102] : what is it?
Result: 0.018

Task: Can you check KCNTATCTVQWLAHQIYQFTDKDKDNVPPTNVGSNG[Hyp]-NH2 (disulfide 2-7 (inferred); ends not checked) [SEQ ID NO: 318] next?
Result: 0.009

Task: Can you check GCRFGTCTVQRLAHQIYQFTDKDKDNVAPRTKVSPNG[Hyp]-NH2 (disulfide 2-7 (inferred); ends not checked) [SEQ ID NO: 134] next?
Result: 0.032

***
Task: Reported hAMY3R EC50 (cAMP) for GCRFGTCTVQRLAHQIYQFTDKDKDNVAPRSNVSPQGY [SEQ ID NO: 131] : what is it?
Result: 0.031

Task: Can you check {C20 diacid-γGlu}-KCNTATCTVVRLAHQIYQFTDKDKDNVAPPTNVGSNG[Hyp]-NH2 (disulfide 2-7 (inferred); ends not checked) [SEQ ID NO: 103] next?
Result: 0.018
